Experiment: HPAF-II 12hr Apoptosis Induction qHTS against the NCATS CANVASS Library (AID 1347358)
Assay Conditions: HPAF-II caspase-3/7 Caspase-Glo luminescence; series mostly up to 46.1 µM
Inconclusive results are not listed. The source made the active and inactive calls. The call rests on the fitted dose curve; in most records, active means well fitted curve in the direction sought with a large enough effect; inconclusive means small, poorly fitted or top-dose-only effect, or another doubt; inactive means no such curve, though single readings can be large or run the other way.
Quantity Name: caspase activation

1) C[C@H](c1cnc(N)[nH]1)c1ccc(O)c2[nH]cc(-c3cnc(-c4c[nH]c5ccccc45)c(=O)[nH]3)c12 :: inactive
2) COc1ccc([C@@H]2c3cc4c(cc3C(=O)[C@H](C)C2C)OCO4)cc1OC (stereo partly drawn) :: inactive
3) O=c1cc(-c2ccc(O)c(O)c2)oc2cc(O[C@@H]3O[C@H](CO)[C@@H](O)[C@H](O)[C@H]3O)cc(O)c12 :: inactive
